- Test system: A549 lung cancer cells
- measurement_notes: Cell viability assay (MTT), dark and blue light
- Assay type: cell-based, Human
- details: blue light 458 nm
measurement_label: SI (vs NIH-3T3) A549 Blue
Write the value as a bare number.

Worked cases, SI (vs NIH-3T3) A549 Blue given:
[[record]]
compound = "COC(=O)c1ccc2[n+](c1)[Ir-3]13([c]4ccccc4-2)([c]2ccccc2-c2ccc(C(=O)OC)c[n+]21)[c]1n(CCCNC(=O)CCCC[C@@H]2SC[C@@H]4NC(=O)N[C@@H]42)cc[n+]1-c1cccc[n+]13.F[P-](F)(F)(F)(F)F [I-e]"
meas_value = 6.3

[[record]]
compound = "COC(=O)c1ccc2[n+](c1)[Ir-3]13([c]4ccccc4-2)([c]2ccccc2-c2ccc(C(=O)OC)c[n+]21)[c]1n(CCCNC(=O)c2ccccc2SC/C=C(\\C)CC/C=C(\\C)CCC=C(C)C)cc[n+]1-c1cccc[n+]13.F[P-](F)(F)(F)(F)F [II-e]"
meas_value = 7.5

[[record]]
compound = "CC(C)=CCC/C(C)=C/CC/C(C)=C/CSc1ccccc1C(=O)NCCCn1cc[n+]2[c]1[Ir-3]13([c]4ccccc4-c4ccc5ccccc5[n+]41)([c]1ccccc1-c1ccc4ccccc4[n+]13)[n+]1ccccc1-2.F[P-](F)(F)(F)(F)F [II-g]"
meas_value = 13.2


Moving on to another compound below.
Give the measured SI (vs NIH-3T3) A549 Blue for F[P-](F)(F)(F)(F)F.O=C(CCCC[C@@H]1SC[C@@H]2NC(=O)N[C@@H]21)NCCCn1cc[n+]2[c]1[Ir-3]13([c]4ccccc4-c4ccc5ccccc5[n+]41)([c]1ccccc1-c1ccc4ccccc4[n+]13)[n+]1ccccc1-2 [I-g]
41.1
